Target: 5-hydroxytryptamine receptor 3A (Rattus norvegicus)
Test: Compound was tested for its binding affinity towards 5-hydroxytryptamine 3 receptor
Test readout: Ki

(Q) Tell me the measured Ki of COc1c(C(=O)N[C@@H]2CN3CCC2CC3)cc(Cl)c(N)c1I , please.
(A) 0.05 nM

----------
Target: 5-hydroxytryptamine receptor 3A (Rattus norvegicus, UniProt P35563)
Sequence (P35563 whole entry): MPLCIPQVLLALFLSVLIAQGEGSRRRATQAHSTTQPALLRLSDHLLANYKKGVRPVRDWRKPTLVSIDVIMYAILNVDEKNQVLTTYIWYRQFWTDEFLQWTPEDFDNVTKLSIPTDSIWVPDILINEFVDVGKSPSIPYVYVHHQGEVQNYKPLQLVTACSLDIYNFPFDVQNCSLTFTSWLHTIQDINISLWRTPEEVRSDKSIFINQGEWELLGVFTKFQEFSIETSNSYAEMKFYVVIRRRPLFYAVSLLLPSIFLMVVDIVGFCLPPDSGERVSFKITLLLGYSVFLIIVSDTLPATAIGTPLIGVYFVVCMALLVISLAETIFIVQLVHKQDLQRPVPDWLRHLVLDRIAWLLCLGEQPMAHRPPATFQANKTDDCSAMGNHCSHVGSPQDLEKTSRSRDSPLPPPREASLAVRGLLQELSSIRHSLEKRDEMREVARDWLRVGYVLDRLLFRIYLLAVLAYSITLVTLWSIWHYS
Experiment: Compound was tested for its antagonistic activity against 5-hydroxytryptamine 3 receptor in rat brain using [3H]zacopride as the radioligand.
Type: functional, tissue-based
Test readout: pKd
Interpret pKd as the negative base-10 log of the concentration measured in mol/L.

(Q) Would you kindly share the measured pKd for COc1cc(N)c(Cl)cc1C(=O)NC1CN2CCC1CC2 (stereo unspecified) [ZACOPRIDE] ?
(A) 9.22

----------
Molecular target: 5-hydroxytryptamine receptor 3A (Rattus norvegicus)
Test: Compound was tested in vitro for its antagonistic activity against 5-hydroxytryptamine 3 receptor in rat CNS.
Assay type: functional
Test readout: Kd (nM)
Report as a plain number; the unit nM is understood.

(Q) Report Kd for COc1cc(N)c(I)cc1C(=O)NC1CN2CCC1CC2 (stereo unspecified) please.
(A) 2.6
